- measurement_target: plasma kallikrein (PKa) (Homo sapiens)
- Construct: purchased R & D 2497-SE
- Sequence (P03952 391-638 limits assumed): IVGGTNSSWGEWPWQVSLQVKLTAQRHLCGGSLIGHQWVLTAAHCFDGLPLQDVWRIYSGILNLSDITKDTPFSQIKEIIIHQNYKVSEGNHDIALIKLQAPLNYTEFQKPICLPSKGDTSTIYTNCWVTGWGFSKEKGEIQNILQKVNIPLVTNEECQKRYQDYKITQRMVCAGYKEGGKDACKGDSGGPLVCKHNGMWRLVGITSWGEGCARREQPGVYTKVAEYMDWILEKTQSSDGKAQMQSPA
- Sequence (P03952 20-390 partner limits assumed): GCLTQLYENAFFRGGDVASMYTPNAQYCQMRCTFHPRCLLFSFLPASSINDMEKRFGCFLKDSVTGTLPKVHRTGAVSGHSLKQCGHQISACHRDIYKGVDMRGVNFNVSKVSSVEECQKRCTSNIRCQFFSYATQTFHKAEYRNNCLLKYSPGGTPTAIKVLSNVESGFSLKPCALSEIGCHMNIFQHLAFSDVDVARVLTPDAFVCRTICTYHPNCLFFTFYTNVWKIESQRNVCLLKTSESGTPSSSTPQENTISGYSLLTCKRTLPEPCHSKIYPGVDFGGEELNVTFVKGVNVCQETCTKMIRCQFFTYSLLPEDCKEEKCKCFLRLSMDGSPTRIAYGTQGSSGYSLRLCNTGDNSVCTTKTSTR
- method_summary: Inhibitory activity against plasma kallikrein in vitro (fluorescence intensity enzyme assay, Pro-Phe-Arg-AMC substrate)
- Type: biochemical
- assay_setup: plasma kallikrein enzyme assay, Pro-Phe-Arg-AMC substrate; read-out: PKa IC50
pIC50: −log10 of the molar value.
test_readout: pIC50

// sample Cc1cc(N)nc(C)c1CNC(=O)c1cnn(Cc2ccc(N3CC4C(C3)C4(F)F)cc2C#N)c1 (stereo not drawn) , its pIC50 was > 10.29

// sample N#Cc1cc(N2CC3C(C2)C3(F)F)ccc1Cn1cnc(C(=O)NC2CCc3cc(N)ncc32)n1 (single isomer, unassigned) [Compound 53] , its pIC50 was < 7.00

// sample COCc1nn(Cc2ccc(-n3ccccc3=O)cc2)cc1C(=O)NCc1nccc(OC)c1F , its pIC50 was < 7.00
